- tgt: UniProtKB O19045
- Sequence (O19045 41-180 limits assumed): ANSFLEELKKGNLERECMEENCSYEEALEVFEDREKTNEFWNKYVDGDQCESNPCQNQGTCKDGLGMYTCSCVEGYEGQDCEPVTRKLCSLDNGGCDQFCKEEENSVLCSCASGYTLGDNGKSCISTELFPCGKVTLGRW
- Sequence (O19045 233-490 limits assumed): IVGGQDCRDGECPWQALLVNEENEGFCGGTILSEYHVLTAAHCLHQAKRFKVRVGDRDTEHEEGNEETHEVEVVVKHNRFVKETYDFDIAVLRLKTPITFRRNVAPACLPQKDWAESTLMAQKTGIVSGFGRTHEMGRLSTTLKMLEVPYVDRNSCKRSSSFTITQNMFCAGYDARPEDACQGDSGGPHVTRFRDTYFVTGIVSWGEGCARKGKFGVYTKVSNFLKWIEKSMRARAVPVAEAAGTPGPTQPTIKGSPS
- assay procedure: Inhibition of F10a in rabbit plasma assessed as ratio of compound prothrombin time to vehicle control prothrombin time at 100 nM after 2 mins by automatic coagulation analyser
Measured Ratio values are reported for all entries that follow.
measurement name: Ratio

>  <molecule>
COc1cc(C(=O)Nc2cc(C(=O)O)ccc2NC(=O)c2ccc(-n3ccccc3=O)cc2)cc(OC)c1OC

>  <reported result>
1.15

$$$$
>  <molecule>
CCOC(=O)c1ccc(NC(=O)c2ccc(-n3ccccc3=O)cc2)c(NC(=O)c2cc(OC)c(OC)c(OC)c2)c1

>  <reported result>
1.21

$$$$
>  <molecule>
NC(=O)c1ccc(NC(=O)c2ccc(-n3ccccc3=O)cc2)c(NC(=O)c2ccc(Cl)s2)c1

>  <reported result>
1.33

$$$$
>  <molecule>
NC(=O)c1ccc(NC(=O)c2ccc(-n3ccccc3=O)cc2)c(NC(=O)c2ccc3ncoc3c2)c1

>  <reported result>
1.66

$$$$
>  <molecule>
COc1cc(C(=O)Nc2cc(C(N)=O)ccc2NC(=O)c2ccc(N3CCCCC3=O)cc2)cc(OC)c1OC

>  <reported result>
1.16

$$$$
>  <molecule>
CC(=O)Nc1ccc(C(=O)Nc2cc(C(N)=O)ccc2NC(=O)c2ccc(-n3ccccc3=O)cc2)cc1

>  <reported result>
1.72

$$$$
>  <molecule>
COc1cc(C(=O)Nc2cc(C(N)=O)ccc2NC(=O)c2ccn(-c3ccccc3)c(=O)c2)cc(OC)c1OC

>  <reported result>
2.1

$$$$
>  <molecule>
COc1cc(C(=O)Nc2cc(C(N)=O)ccc2NC(=O)c2ccc(N3CCCC3=O)cc2)cc(OC)c1OC

>  <reported result>
1.27

$$$$
>  <molecule>
NC(=O)c1ccc(NC(=O)c2ccc(-n3ccccc3=O)cc2)c(NC(=O)c2ccc(F)cc2)c1

>  <reported result>
1.27

$$$$
>  <molecule>
COc1cc(C(=O)Nc2ccc(C(N)=O)cc2NC(=O)c2ccc(-n3ccccc3=O)cc2)cc(OC)c1OC

>  <reported result>
1.07

$$$$
>  <molecule>
NC(=O)c1ccc(NC(=O)c2ccc(-n3ccccc3=O)cc2)c(NC(=O)c2ccc(Cl)cc2)c1

>  <reported result>
1.88

$$$$
>  <molecule>
NC(=O)c1ccc(NC(=O)c2ccc(-n3ccccc3=O)cc2)c(NC(=O)c2ccc(NC=O)cc2)c1

>  <reported result>
1.54

$$$$
>  <molecule>
NC(=O)c1ccc(NC(=O)c2ccc(-n3ccccc3=O)cc2)c(NC(=O)c2ccc(Cl)nc2)c1

>  <reported result>
1.27

$$$$
>  <molecule>
COc1ccc(C(=O)Nc2cc(C(N)=O)ccc2NC(=O)c2ccc(-n3ccccc3=O)cc2)cc1

>  <reported result>
1.87

$$$$
>  <molecule>
COc1cc(C(=O)Nc2cc(C(N)=O)ccc2NC(=O)c2ccc(-n3ccccc3=O)cc2)cc(OC)c1OC

>  <reported result>
2.06

$$$$
>  <molecule>
COc1ccc(C(=O)Nc2cc(C(N)=O)ccc2NC(=O)c2ccc(-n3ccccc3=O)cc2)cc1OC

>  <reported result>
1.94

$$$$
